target.system: Human autotaxin enzyme (Homo sapiens)
Construct: purchased R&D System
run.description: Evaluation of autotaxin inhibitor, Method C (Test Example 3): 18:0 Lyso PC, choline assay, Resorufin fluorescence
Type: biochemical
test.settings: Assay Method C (Test Example 3), human autotaxin, 18:0 Lyso PC substrate; read-out: Inhibitory Activity (autotaxin enzyme inhibitory activity, IC50 class)
measured.attribute: IC50

Look over these answered cases.
CCn1c(N2C[C@H](O)C[C@H]2C(=O)N[C@H](C(=O)O)C(C)(C)C)cc(=O)n2cc(-c3ccc(Cl)cc3)nc12    10 to 100 nM
CCCCCn1c(N2CCC[C@@H]2CC(=O)NCCC(=O)O)cc(=O)n2cc(-c3ccc(Cl)cc3)nc12    100 to 1000 nM
CCCCCn1c(-c2cnccc2OC)cc(=O)n2cc(-c3ccc(Cl)cc3)nc12    100 to 1000 nM

Data request: Which IC50 value belongs to C[C@H](NC(=O)[C@@H]1CCCN1c1cc(=O)n2cc(-c3ccc(Cl)cc3)nc2n1C)C(=O)O ?
Data returned: 100 to 1000 nM

Data request: Which IC50 value belongs to CCCCCn1c(N2C[C@@H](O)C[C@H]2C(=O)NC(C)(C)CC(=O)O)cc(=O)n2cc(-c3ccc(Cl)cc3)nc12 ?
Data returned: < 10 nM

Data request: Which IC50 value belongs to CCCCCn1c(N2CCC(C(=O)NC)CC2)cc(=O)n2cc(-c3ccc(Cl)cc3)nc12 ?
Data returned: 100 to 1000 nM

====

target.system: Human autotaxin enzyme (Homo sapiens)
Construct: purchased R&D System
run.description: Evaluation of autotaxin inhibitor, Method C (Test Example 3): 18:0 Lyso PC, choline assay, Resorufin fluorescence
Type: biochemical
test.settings: Assay Method C, human autotaxin, 18:0 Lyso PC substrate; read-out: Inhibitory Activity
pIC50: −log10 of the molar value.
Property: pIC50; scope: individual compounds

Look over these answered cases.
CC(C)(O)CNC(=O)Cc1cn(CCCC(F)(F)F)c2nc(-c3ccc(Cl)cc3)cn2c1=O [Compound 857]    < 6.00
O=C(Cc1cn(CCCC(F)(F)F)c2nc(-c3ccc(Cl)cc3)cn2c1=O)NCc1cc(=O)[nH]o1 [Compound 842]    6.00 to 7.00
N#CC(NC(=O)Cc1cn(CCCC(F)(F)F)c2nc(-c3ccc(Cl)cc3)cn2c1=O)C(N)=O (stereo not drawn) [Compound 859]    < 6.00
O=C(Cc1cn(CCCC(F)(F)F)c2nc(-c3ccc(Cl)cc3)cn2c1=O)N1CCC(O)CC1 [Compound 838]    < 6.00
CCCCCn1c(N2CCC[C@H]2C(=O)Nc2nn[nH]n2)cc(=O)n2cc(-c3ccc(Cl)cc3)nc12 [Compound 783]    7.00 to 8.00

Now for another entry.
Data request: Which pIC50 value belongs to CCCCCn1c(N2CCCC[C@@H]2C)cc(=O)n2cc(-c3ccc(Cl)cc3)nc12 [Compound 808] ?
Data returned: < 6.00

====

target.system: Human autotaxin enzyme (Homo sapiens)
Construct: purchased R&D System
run.description: Evaluation of autotaxin inhibitor, Method C (Test Example 3): 18:0 Lyso PC, choline assay, Resorufin fluorescence
Type: biochemical
test.settings: Assay Method C, human autotaxin, 18:0 Lyso PC substrate; read-out: Inhibitory Activity
pIC50: −log10 of the molar value.
measured.attribute: pIC50

O=C(O)Cc1cn(CCCC(F)(F)F)c2nc(-c3ccc(Cl)cc3)cn2c1=O    < 6.00
CCCCCn1c(N2CCC[C@H]2C(=O)Nc2ccc(OC)c(O)c2)cc(=O)n2cc(-c3ccc(Cl)cc3)nc12    6.00 to 7.00
CCCCCn1c(N2CCC[C@H]2C(=O)Nc2cccc(-c3nn[nH]n3)c2)cc(=O)n2cc(-c3ccc(Cl)cc3)nc12    6.00 to 7.00

Now for another entry.
Data request: Which pIC50 value belongs to O=C(Cc1cn(CCCC(F)(F)F)c2nc(-c3ccc(Cl)cc3)cn2c1=O)N[C@@H](CO)Cc1ccccc1 ?
Data returned: < 6.00
